Quick record of log10(IC50) values for RORc ligand binding domain (Homo sapiens).
log10 IC50, nM

Known results for compounds:
smiles-representation | measured-number
COCC1CN(C(=O)[C@@]23CC[C@@H](c4cc(-c5c(F)cccc5F)nnc42)C3(C)C)C1 | 2.26
CONC(=O)[C@]12CC[C@H](c3cc(-c4c(F)cccc4F)nnc31)C2(C)C | 2.58
CCN(C[C@@]12CC[C@@H](c3cc(-c4c(F)cccc4F)nnc31)C2(C)C)C(=O)N(C)C | 1.56
CC1(C)[C@@H]2CC[C@@]1(C(=O)N1CC3(CCCO3)C1)c1nnc(-c3c(F)cccc3F)cc12 | 2.79
CNC(=O)[C@@]12CC[C@@H](c3cc(-c4ccccc4F)nnc31)C2(C)C | 3.31

Documented log10(IC50) of Cc1nnc(OC(=O)[C@]23CC[C@H](c4cc(-c5c(F)cccc5F)nnc42)C3(C)C)o1 : 3.14

Documented log10(IC50) of Cc1nnc(NC(=O)[C@]23CC[C@H](c4cc(-c5c(F)cccc5F)nnc42)C3(C)C)o1 : 3.00

Documented log10(IC50) of CN(C(=O)[C@]12CC[C@H](c3cc(-c4c(F)cccc4F)nnc31)C2(C)C)c1ccccn1 : 3.02

Documented log10(IC50) of Cc1ncoc1[C@@]12CC[C@@H](c3cc(-c4c(F)cccc4F)nnc31)C2(C)C : 2.13

Documented log10(IC50) of CC(=O)O[C@@H]1C[C@H]2c3cc(-c4ccccc4F)nnc3[C@]1(C)C2(C)C : 3.08

Documented log10(IC50) of CC1(C)[C@@H]2CC[C@@]1(C(=O)NC1CCC1)c1nnc(-c3ccccc3F)cc12 : 3.18

Documented log10(IC50) of CN(C)C(=O)[C@@]12CC[C@@H](c3cc(-c4c(F)cccc4F)nnc31)C2(C)C : 2.93

Documented log10(IC50) of CN(C(=O)[C@]12CC[C@H](c3cc(-c4c(F)cccc4F)nnc31)C2(C)C)C1CCC1 : 2.33
